# Target under test: T1, Pellino 1 FHA (PELI1 residues 13-273) (human, UniProt Q96FA3 13-273)
# T1 construct: Cloned into pGEX-6P1; same preparation for ITC and crystallography by the methods; also called PELI1 (13–273); N-terminal PELI1 fragment; source: E. coli BL21 (DE3), purified (Glutathione Sepharose, 3C cleavage, gel filtration); not shown: GST, N-terminal, cleaved
# T1 sequence (looked up): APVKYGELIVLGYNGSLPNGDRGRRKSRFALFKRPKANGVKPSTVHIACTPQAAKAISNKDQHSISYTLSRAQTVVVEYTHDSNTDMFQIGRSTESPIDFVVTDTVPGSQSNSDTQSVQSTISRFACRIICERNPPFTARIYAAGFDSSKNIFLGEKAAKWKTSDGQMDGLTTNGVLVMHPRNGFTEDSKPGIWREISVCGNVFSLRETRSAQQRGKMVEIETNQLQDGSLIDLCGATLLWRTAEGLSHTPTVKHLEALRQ
# Experiment summary: ITC; peptide in the syringe (typically 160 μM), protein in the cell (16 μM); 25 mM HEPES pH 7.0, 200 mM NaCl, 1 mM TCEP; single-site binding model
# Run conditions: both partners purified
Square brackets hold non-standard residues; d marks the D form. pT = C[C@@H](OP(=O)(O)O)[C@H](N)C(=O)O

| Binder | stoichiometry N |
| --- | --- |
| Ac-AYEDSE[pT]QPFD-NH2 (SMILES CC(=O)N[C@@H](C)C(=O)N[C@@H](Cc1ccc(O)cc1)C(=O)N[C@@H](CCC(=O)O)C(=O)N[C@@H](CC(=O)O)C(=O)N[C@@H](CO)C(=O)N[C@@H](CCC(=O)O)C(=O)N[C@H](C(=O)N[C@@H](CCC(N)=O)C(=O)N1CCC[C@H]1C(=O)N[C@@H](Cc1ccccc1)C(=O)N[C@@H](CC(=O)O)C(N)=O)[C@@H](C)OP(=O)(O)O, two N-terminal residues that are not the MDC1 residues at this place; human MDC1, stretch around T765; Natural stretch with two added N-terminal residues (AY); The crystallisation methods name only 'the MDC1-pT765 phosphopeptide'; also called MDC1-pT765 (Site 4) phosphopeptide; MDC1 p765 peptide; source: synthetic peptide) [MDC1-pT765 phosphopeptide for ITC and crystallisation (AYEDSEpTQPFD)] | 0.62 |
